# System: cat flea (Ctenocephalides felis)
# assay overview: Ctenocephalides felis adulticide assay: single dose screen on treated glass surface (% mortality at 1.26 μg/cm^2, 24 hours)
# Assay type: in vivo
# particulars: in vivo
quantity: Ctenocephalides felis Mortality (%) 24 h
One number for each entry, in %.

Here's what some known entries look like.
- compound: "CCOCN(c1ccc(Cl)cc1Oc1ccc(Cl)cc1Cl)S(=O)(=O)C(F)(F)F"
  units of measure: "%"
  Ctenocephalides felis Mortality (%) 24 h: 0
- compound: "C#CCN(c1ccc(Cl)cc1Oc1ccccc1F)S(=O)(=O)C(F)(F)F"
  units of measure: "%"
  Ctenocephalides felis Mortality (%) 24 h: 97

Need Ctenocephalides felis Mortality (%) 24 h for each of these compounds.
1. O=S(=O)(Nc1ccc(Cl)c(Cl)c1Oc1ccccc1F)C(F)(F)F
2. O=S(=O)(Nc1ccc(Cl)cc1Oc1cccc(F)c1)C(F)(F)F

Completion:
1. 19
2. 100

Need Ctenocephalides felis Mortality (%) 24 h for each of these compounds.
1. O=S(=O)(Nc1ccc(Cl)cc1Oc1ccc(F)cc1)C(F)(F)F
2. CC(C)(C)C(=O)OCN(c1ccc(Oc2ccccc2)cc1)S(=O)(=O)C(F)(F)F
3. O=S(=O)(Nc1ccc(Cl)cc1Oc1cc(Cl)ccc1Cl)C(F)(F)F
4. N#Cc1cccc(Oc2cc(Cl)ccc2NS(=O)(=O)C(F)(F)F)c1
5. CCc1ccccc1Oc1cc(Cl)ccc1NS(=O)(=O)C(F)(F)F
6. O=S(=O)(Nc1ccc(Oc2ccccc2)cc1)C(F)(F)F [p1]
7. N#Cc1ccc(NS(=O)(=O)C(F)(F)F)c(Oc2ccc(F)c(F)c2)c1

Completion:
1: 100; 2: 54; 3: 58; 4: 14; 5: 95; 6: 84; 7: 2

---

# Test system: cat flea (Ctenocephalides felis)
# assay overview: Ctenocephalides felis adulticide assay: single dose screen on treated glass surface (% mortality at 1.26 μg/cm^2, 24 hours)
# Type: in vivo
# particulars: in vivo
# Procedure: The LC50 value is the concentration, expressed as μg/cm^2, that was required to kill 50% of the sample of cat fleas on contact with the tested compound. Certain tests are also reported as the percent of a sample of cat fleas that were killed at a concentration of 1.26 μg/cm^2 (“% mortality”), for the compounds tested in this way. b) Ctenocephalides felis Adulticide Assay: C.felis single dose screen Mortality of fleas is the primary endpoint in the assay. […]
// NB: equality with 60% counts as 0; only Ctenocephalides felis Mortality (%) 24 h strictly below is 1

Prompt: Lab note: Ctenocephalides felis Mortality (%) 24 h threshold 60%. Does this compound come in strictly under it? CC(C)(C)C(=O)OCN(c1ccc(Cl)cc1Oc1ccccc1F)S(=O)(=O)C(F)(F)F
Completion: 0

Prompt: Item: O=S(=O)(Nc1cc(C(F)(F)F)ccc1Oc1ccc(Cl)cc1)C(F)(F)F
Completion: 1

Prompt: Item: O=S(=O)(Nc1cc(Cl)c(Cl)cc1Oc1ccc(F)cc1Cl)C(F)(F)F
Completion: 1

Prompt: Item: O=S(=O)(Nc1cc(C(F)(F)F)ccc1Sc1ccccc1Cl)C(F)(F)F
Completion: 1

Prompt: Item: O=S(=O)(Nc1cc(Cl)ccc1Oc1ccc(Cl)cc1Cl)C(F)(F)F
Completion: 0

Prompt: Item: O=S(=O)(Nc1ccc(Cl)cc1Oc1ccccc1C(F)(F)F)C(F)(F)F
Completion: 0

Prompt: Item: COc1cccc(Oc2cc(Cl)ccc2NS(=O)(=O)C(F)(F)F)c1
Completion: 0

Prompt: Item: CC(C)N(c1ccc(Cl)cc1Oc1ccc(Cl)cc1Cl)S(=O)(=O)C(F)(F)F
Completion: 0

Prompt: Item: O=S(=O)(c1ccc(Cl)cc1)c1cc(Cl)ccc1NS(=O)(=O)C(F)(F)F
Completion: 1
